Cited source: ChEMBL document CHEMBL1201862

The entries below are paired with their reported GI50.
system: DU-145; experiment: NCI tumour cell line growth inhibition, 48 h
The source made the active and inactive calls. No stated cut-off is given here; in the data, active = GI50 up to about 1.1 µM and inactive = higher.

Ask | # lookup: GI50 of O=C1c2cccc3cccc(c23)C2NCCCN12 (configuration not stated)
Reply | > 100 µM (inactive)

Ask | # lookup: GI50 of NC1CNC(=O)c2cscc21 (configuration not stated)
Reply | > 100 µM (inactive)

Ask | # lookup: GI50 of Cn1cc(C2NC(=O)c3ccccc3N2)c2ccccc21 (configuration not stated)
Reply | 0.887 µM (active)

Ask | # lookup: GI50 of C[N+]1(CCC[N+]2(C)CC3C4C=CC(CC4)C3C2)CCOCC1 (configuration not stated)
Reply | > 100 µM (inactive)

* * *

system: MCF7; assay: NCI tumour cell line growth inhibition, 48 h
Active and inactive are the calls of the source. Rule as the data show it: active = GI50 up to about 1.1 µM and inactive = higher.
Respond with a class label; see active, inactive

>>> class_name("Cc1[nH]n(-c2ccc(S(=O)(=O)O)cc2)c(=O)c1/N=N/c1ccccc1")
"inactive"

Ask | Call for entry "Cn1c(=O)c2nc(Nc3ccccc3)[nH]c2n(C)c1=O" :
Reply | inactive

Ask | Call for entry "[O-][Cl+3]([O-])([O-])[O-].[O-][Cl+3]([O-])([O-])[O-].c1ccn2c(N3CCCC3)[n+]3c4ccccc4n4c(N5CCCC5)[n+]5ccccc5c4c3c2c1" :
Reply | inactive

* * *

test system: TK-10; test: NCI tumour cell line growth inhibition, 48 h
Calls of active or inactive are those of the source. Rule as the data show it: active = GI50 up to about 1.1 µM and inactive = higher.
The entries below are paired with their reported GI50.

>>> recorded_result("O=C1OC(c2ccccc2)=N/C1=C\\c1c(O)cc(O)cc1O")
"> 100 µM (inactive)"
>>> recorded_result("C=CCSC1=N/C(=C\\c2ccc(C)cc2)C(=O)N1CC=C")
"44.3 µM (inactive)"
>>> recorded_result("O=c1c(C(c2ccc(C(c3c(O)oc4cc(O)ccc4c3=O)c3c(O)oc4cc(O)ccc4c3=O)cc2)c2c(O)oc3cc(O)ccc3c2=O)c(O)oc2cc(O)ccc12")
"> 100 µM (inactive)"

From here, focus on the item given below.
Ask | # lookup: GI50 of "O=S(=O)(O)c1ccc(/N=N/c2ccc(/N=N/c3c(O)ccc4cc(S(=O)(=O)O)ccc34)cc2)cc1"
Reply | > 100 µM (inactive)

* * *

test system: HOP-62; assay: NCI tumour cell line growth inhibition, 48 h
Activity calls are given as the source filed them. Cut-off read from the data, not from the text of the source: active = GI50 up to about 1.1 µM and inactive = higher.
READOUT_LABEL: GI50

Before answering, review these 8 worked examples.
>>> recorded_result("CCCCn1c(C)c2c(c1C)C(=O)N(CCN1CCN(c3ccccc3Cl)CC1)C2=O")
"29 µM (inactive)"
>>> recorded_result("Cc1c(N2C(=O)/C(=C/C=C/c3ccccc3)N=C2c2ccccc2)c(=O)n(-c2ccccc2)n1C")
"26.5 µM (inactive)"
>>> recorded_result("OC(Cc1cccnc1)(c1ccccc1)c1ccccc1")
"> 100 µM (inactive)"
>>> recorded_result("Cc1nc(Nc2ccc(Cl)cc2)sc1C(=O)NNC(=O)C(=O)NN")
"21.5 µM (inactive)"
>>> recorded_result("Nc1ccccc1.O=P(O)(OP(=O)(O)c1ccccc1)c1ccccc1")
"> 100 µM (inactive)"
>>> recorded_result("Cc1cc(OCc2nnc3n2N=C(c2cc(F)c(Cl)cc2Cl)/C(=C/c2ccc(Cl)cc2)S3)ccc1Cl")
"43.1 µM (inactive)"
>>> recorded_result("COC(=O)/C(=C(/C)c1ccco1)P(=O)(OC)OC")
"> 100 µM (inactive)"
>>> recorded_result("CSc1nc(SC)c2c(CO)c(Br)n(Cc3ccccc3)c2n1")
"27 µM (inactive)"

Ask | # lookup: GI50 of c1ccc(C2=NOC3(c4ccccc4)SC4CCCCC4CN23)cc1 (stereo unspecified)
Reply | 38.7 µM (inactive)

Ask | # lookup: GI50 of "CCCCCCCCCCCCNC(C)=O"
Reply | 14.3 µM (inactive)

Ask | # lookup: GI50 of "NC(=S)NS(=O)(=O)c1ccc(F)cc1F"
Reply | > 100 µM (inactive)
